Kindly state microsomal CLint for each of the entries shown.
- testMethodNotes: Metabolic stability in mouse liver microsomes assessed as intrinsic clearance
- Assay type: ADME, Microsome
- condition: liver microsomes, read-out: CLH
Give a bare numeral; the unit µL/min/mg is implied.

q: Given O=C1CCC(Nc2ccc(N3CCN(CC4CCN(CC(=O)N5CCC(NC(=O)c6n[nH]cc6NC(=O)c6c(Cl)cccc6Cl)CC5)CC4)CC3)cc2)C(=O)N1 (stereo not given) , respond with its microsomal CLint.
a: 10.2

q: Given O=C1CCC(N2C(=O)c3ccc(N4CCN(CC(=O)N5CCC(CN6CCC(NC(=O)c7n[nH]cc7NC(=O)c7c(Cl)cccc7Cl)CC6)CC5)CC4)cc3C2=O)C(=O)N1 (stereo not given) , respond with its microsomal CLint.
a: 16.2

q: Given O=C1CCC(Nc2cccc(N3CCN(CC4CCN(CC(=O)N5CCC(NC(=O)c6n[nH]cc6NC(=O)c6c(Cl)cccc6Cl)CC5)CC4)CC3)c2)C(=O)N1 (stereo not given) , respond with its microsomal CLint.
a: 9.4

q: Given O=C1CCC(N2C(=O)c3ccc(N4CCN(CC5CCN(C(=O)CN6CCC(NC(=O)c7n[nH]cc7NC(=O)c7c(Cl)cccc7Cl)CC6)CC5)CC4)cc3C2=O)C(=O)N1 (stereo not given) , respond with its microsomal CLint.
a: 16.4

q: Given O=C1CCC(N2C(=O)c3ccc(N4CCN(CC5CCN(CC(=O)N6CCC(NC(=O)c7n[nH]cc7NC(=O)c7c(Cl)cccc7Cl)CC6)CC5)CC4)cc3C2=O)C(=O)N1 (stereo not given) , respond with its microsomal CLint.
a: 11

* * *

- testMethodNotes: Cmax in Sprague-Dawley rat at 25 mg/kg, po measured after 12 hrs by LC-MS/MS analysis
- Type: ADME, organism-based
- condition: in vivo
quantityKind: Cmax
Write the quantity with the unit trailing the number.

q: Given O=C1CCC(Nc2cccc(N3CCN(CC4CCN(CC(=O)N5CCC(NC(=O)c6n[nH]cc6NC(=O)c6c(Cl)cccc6Cl)CC5)CC4)CC3)c2)C(=O)N1 (stereo unspecified) , respond with its Cmax.
a: 179 ng/mL

* * *

- testMethodNotes: Cytotoxicity against human L02 cells assessed as inhibition of cell growth incubated for 72 hrs by CCK8 assay
- Assay type: toxicity, cell-based
quantityKind: IC50 at 72 h (nM)
Give a bare numeral; the unit nM is implied.

q: Given O=C1CCC(Nc2cccc(N3CCN(CC4CCN(CC(=O)N5CCC(NC(=O)c6n[nH]cc6NC(=O)c6c(Cl)cccc6Cl)CC5)CC4)CC3)c2)C(=O)N1 (stereo unspecified) , respond with its IC50 at 72 h.
a: 70

* * *

- testMethodNotes: Metabolic stability in human liver microsomes assessed as half-life
- Assay type: ADME, Microsome
- condition: liver microsomes
Kindly state half-life for each of the entries shown.
Give a bare numeral; the unit min is implied.

q: Given O=C1CCC(N2C(=O)c3ccc(N4CCN(CC5CCN(CC(=O)N6CCC(NC(=O)c7n[nH]cc7NC(=O)c7c(Cl)cccc7Cl)CC6)CC5)CC4)cc3C2=O)C(=O)N1 (stereo not given) , respond with its half-life.
a: 30.4

q: Given O=C1CCC(N2C(=O)c3ccc(N4CCN(CC5CCN(C(=O)CN6CCC(NC(=O)c7n[nH]cc7NC(=O)c7c(Cl)cccc7Cl)CC6)CC5)CC4)cc3C2=O)C(=O)N1 (stereo not given) , respond with its half-life.
a: 6.17

q: Given O=C1CCC(Nc2cccc(N3CCN(CC4CCN(CC(=O)N5CCC(NC(=O)c6n[nH]cc6NC(=O)c6c(Cl)cccc6Cl)CC5)CC4)CC3)c2)C(=O)N1 (stereo not given) , respond with its half-life.
a: 106

q: Given O=C1CCC(Nc2ccc(N3CCN(CC4CCN(CC(=O)N5CCC(NC(=O)c6n[nH]cc6NC(=O)c6c(Cl)cccc6Cl)CC5)CC4)CC3)cc2)C(=O)N1 (stereo not given) , respond with its half-life.
a: 58.8

q: Given O=C1CCC(N2C(=O)c3ccc(N4CCN(CC(=O)N5CCC(CN6CCC(NC(=O)c7n[nH]cc7NC(=O)c7c(Cl)cccc7Cl)CC6)CC5)CC4)cc3C2=O)C(=O)N1 (stereo not given) , respond with its half-life.
a: 4.75

* * *

- testMethodNotes: Cmax in mouse at 5 mg/kg, iv
- Type: ADME, organism-based
- condition: in vivo
quantityKind: Cmax (ng/mL)
Give a bare numeral; the unit ng/mL is implied.

q: Given O=C1CCC(Nc2cccc(N3CCN(CC4CCN(CC(=O)N5CCC(NC(=O)c6n[nH]cc6NC(=O)c6c(Cl)cccc6Cl)CC5)CC4)CC3)c2)C(=O)N1 (stereo unspecified) , respond with its Cmax.
a: 2600

* * *

- experimentalTarget: Protein cereblon/Cyclin-dependent kinase 9 (Homo sapiens, UniProt P50750+Q96SW2)
- Sequence (P50750 whole entry, looked up): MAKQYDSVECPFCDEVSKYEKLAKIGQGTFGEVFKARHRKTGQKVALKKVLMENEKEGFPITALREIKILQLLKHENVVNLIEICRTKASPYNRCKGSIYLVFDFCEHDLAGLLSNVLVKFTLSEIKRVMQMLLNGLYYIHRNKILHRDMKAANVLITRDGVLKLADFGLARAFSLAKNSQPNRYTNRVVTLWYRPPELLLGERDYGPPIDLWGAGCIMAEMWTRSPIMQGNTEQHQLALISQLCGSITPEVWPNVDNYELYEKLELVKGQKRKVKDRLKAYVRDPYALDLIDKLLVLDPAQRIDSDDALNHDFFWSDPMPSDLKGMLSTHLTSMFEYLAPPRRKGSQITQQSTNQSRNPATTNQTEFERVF
- Sequence (Q96SW2 whole entry, looked up): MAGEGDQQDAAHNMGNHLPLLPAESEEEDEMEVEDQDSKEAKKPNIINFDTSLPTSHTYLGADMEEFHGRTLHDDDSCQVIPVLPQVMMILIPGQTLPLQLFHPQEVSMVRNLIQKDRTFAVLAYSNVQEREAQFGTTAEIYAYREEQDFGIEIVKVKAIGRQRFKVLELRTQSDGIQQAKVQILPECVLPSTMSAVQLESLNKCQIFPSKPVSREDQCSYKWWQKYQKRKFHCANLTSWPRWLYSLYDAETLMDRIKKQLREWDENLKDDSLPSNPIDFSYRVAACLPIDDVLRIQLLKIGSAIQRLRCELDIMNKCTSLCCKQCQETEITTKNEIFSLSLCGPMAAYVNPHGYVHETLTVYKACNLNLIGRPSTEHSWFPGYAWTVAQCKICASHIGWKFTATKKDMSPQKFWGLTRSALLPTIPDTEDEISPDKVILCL
- testMethodNotes: PROTAC activity at CRBN/CDK9 in human NCI-H69 cells assessed as induction of CDK9 degradation at 10 nM by Western blot analysis relative to control
- Type: cell-based
quantityKind: Activity (%)
Give a bare numeral; the unit % is implied.

q: Check Protein cereblon/Cyclin-dependent kinase 9 (Homo sapiens, UniProt P50750+Q96SW2) data and give Activity for CN1C(=O)CCC(Nc2cccc(N3CCN(CC4CCN(CC(=O)N5CCC(NC(=O)c6n[nH]cc6NC(=O)c6c(Cl)cccc6Cl)CC5)CC4)CC3)c2)C1=O (stereo unspecified) .
a: 12.3

q: Check Protein cereblon/Cyclin-dependent kinase 9 (Homo sapiens, UniProt P50750+Q96SW2) data and give Activity for O=C1CCC(Nc2ccc(N3CCN(CC4CCN(CC(=O)N5CCC(NC(=O)c6n[nH]cc6NC(=O)c6c(Cl)cccc6Cl)CC5)CC4)CC3)c(F)c2)C(=O)N1 (stereo unspecified) .
a: 66.1

q: Check Protein cereblon/Cyclin-dependent kinase 9 (Homo sapiens, UniProt P50750+Q96SW2) data and give Activity for O=C1CCC(N2C(=O)c3cccc(NCCCCCCN4CCC(NC(=O)c5n[nH]cc5NC(=O)c5c(Cl)cccc5Cl)CC4)c3C2=O)C(=O)N1 (stereo unspecified) .
a: 34

q: Check Protein cereblon/Cyclin-dependent kinase 9 (Homo sapiens, UniProt P50750+Q96SW2) data and give Activity for O=C1CCC(N2C(=O)c3ccc(N4CCN(CC(=O)N5CCC(NC(=O)c6n[nH]cc6NC(=O)c6c(Cl)cccc6Cl)CC5)CC4)cc3C2=O)C(=O)N1 (stereo unspecified) .
a: 45.5

q: Check Protein cereblon/Cyclin-dependent kinase 9 (Homo sapiens, UniProt P50750+Q96SW2) data and give Activity for O=C1CCC(Nc2ccc(N3CCN(CC4CCN(CC(=O)N5CCC(NC(=O)c6n[nH]cc6NC(=O)c6c(Cl)cccc6Cl)CC5)CC4)CC3)cc2)C(=O)N1 (stereo unspecified) .
a: 88.9

q: Check Protein cereblon/Cyclin-dependent kinase 9 (Homo sapiens, UniProt P50750+Q96SW2) data and give Activity for O=C1CCC(N2C(=O)c3cccc(NCCCCCCCN4CCC(NC(=O)c5n[nH]cc5NC(=O)c5c(Cl)cccc5Cl)CC4)c3C2=O)C(=O)N1 (stereo unspecified) .
a: 10.6

* * *

- experimentalTarget: Protein cereblon/Cyclin-dependent kinase 9 (Homo sapiens, UniProt P50750+Q96SW2)
- testMethodNotes: PROTAC activity at CRBN/CDK9 in human NCI-H69 cells assessed as induction of CDK9 degradation at 10 nM by Western blot analysis relative to control
- Format: cell-based
Kindly state Activity for each of the entries shown.
Give a bare numeral; the unit % is implied.

q: Given O=C1CCC(N2C(=O)c3ccc(N4CCC(OC(=O)CN5CCC(NC(=O)c6n[nH]cc6NC(=O)c6c(Cl)cccc6Cl)CC5)CC4)cc3C2=O)C(=O)N1 (stereo unspecified) , respond with its Activity.
a: 25.2

q: Given O=C1CCC(N2C(=O)c3cccc(NCCCCCCC(=O)N4CCC(NC(=O)c5n[nH]cc5NC(=O)c5c(Cl)cccc5Cl)CC4)c3C2=O)C(=O)N1 (stereo unspecified) , respond with its Activity.
a: 0.132

q: Given O=C1CCC(N2C(=O)c3ccc(N4CCN(CC(=O)N5CCC(CN6CCC(NC(=O)c7n[nH]cc7NC(=O)c7c(Cl)cccc7Cl)CC6)CC5)CC4)cc3C2=O)C(=O)N1 (stereo unspecified) , respond with its Activity.
a: 86.1

q: Given O=C(CNc1cccc2c1C(=O)N(C1CCC(=O)NC1=O)C2=O)NCCCCCCCCCCC(=O)N1CCC(NC(=O)c2n[nH]cc2NC(=O)c2c(Cl)cccc2Cl)CC1 (stereo unspecified) , respond with its Activity.
a: 21.8

q: Given O=C1CCC(N2C(=O)c3ccc(N4CCN(C(=O)CN5CCC(CN6CCC(NC(=O)c7n[nH]cc7NC(=O)c7c(Cl)cccc7Cl)CC6)CC5)CC4)cc3C2=O)C(=O)N1 (stereo unspecified) , respond with its Activity.
a: 51.5

q: Given O=C1CCC(N2C(=O)c3ccc(N4CCN(C(=O)CCCC(=O)N5CCC(NC(=O)c6n[nH]cc6NC(=O)c6c(Cl)cccc6Cl)CC5)CC4)cc3C2=O)C(=O)N1 (stereo unspecified) , respond with its Activity.
a: 3.8
